FYI, the data here is from patent US12116343B2.

Experimental System: G1 APOL1 (Homo sapiens, UniProt O14791, I384M/S342G)
Construct: expressed in transfected cells
Sequence (O14791 28-398 S342G/I384M): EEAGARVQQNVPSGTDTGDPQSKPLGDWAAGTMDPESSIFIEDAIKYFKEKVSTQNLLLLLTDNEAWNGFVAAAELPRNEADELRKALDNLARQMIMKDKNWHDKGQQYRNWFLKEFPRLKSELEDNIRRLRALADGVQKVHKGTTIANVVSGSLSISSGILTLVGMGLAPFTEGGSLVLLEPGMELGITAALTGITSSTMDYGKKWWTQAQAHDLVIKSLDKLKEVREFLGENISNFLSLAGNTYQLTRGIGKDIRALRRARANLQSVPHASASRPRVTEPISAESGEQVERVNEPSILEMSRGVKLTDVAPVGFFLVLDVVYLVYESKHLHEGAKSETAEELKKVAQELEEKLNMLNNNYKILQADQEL
Protocol Description: Acute APOL1 Thallium Assay with inducible stable clones of HEK 293 cells
Format: cell-based
Reported Conditions: HEK 293 T-Rex cells expressing G1 APOL1; read-out: Thallium Assay (IC50)
pIC50: −log10 of the molar value.
Measurement Name: pIC50

INSERT INTO assay_data (compound, value_reported) VALUES
  ('CCN(CCO)C(=O)[C@H]1C[C@H](c2c(-c3ccc(F)cc3)[nH]c3c(F)cc(F)cc32)C1', '6.00 to 6.60'),
  ('O=C([C@H]1C[C@H](c2c(-c3ccc(F)cc3)[nH]c3c(F)cc(F)cc32)C1)N1C[C@@H](O)[C@H](O)C1', '< 6.00'),
  ('CC(=O)NC1CCCN(C(=O)[C@H]2C[C@H](c3c(-c4ccc(F)cc4)[nH]c4c(F)cc(F)cc43)C2)C1 (some centres unmarked)', '< 6.00'),
  ('O=C([C@H]1C[C@H](c2c(-c3ccc(F)cc3)[nH]c3c(F)cc(F)cc32)C1)N(CCOCCO)C1CCC1', '< 6.00'),
  ('O=C1NC[C@@H](O)[C@@H]1NC(=O)[C@H]1C[C@H](c2c(-c3ccc(F)cc3)[nH]c3c(F)cc(F)cc32)C1', '> 6.60'),
  ('O=C1CC[C@H](NC(=O)[C@H]2C[C@H](c3c(-c4ccc(F)cc4)[nH]c4c(F)cc(F)cc43)C2)C1', '6.00 to 6.60'),
  ('O=C(NCC(F)(F)F)[C@H]1C[C@@H](c2c(-c3ccc(F)cc3)[nH]c3c(F)cc(F)cc32)C1', '6.00 to 6.60'),
  ('O=C([C@H]1C[C@H](c2c(-c3ccc(F)cc3)[nH]c3c(F)cc(F)cc32)C1)N1CCN(CCO)CC1', '< 6.00'),
  ('C[C@H](NC(=O)[C@H]1C[C@H](c2c(-c3ccc(F)cc3)[nH]c3c(F)cc(F)cc32)C1)C(=O)N(C)C', '6.00 to 6.60'),
  ('CC(C)(CO)NC(=O)[C@H]1C[C@@H](c2c(-c3ccc(F)cc3)[nH]c3c(F)cc(F)cc32)C1', '6.00 to 6.60'),
  ('CC(O)CN(CCO)C(=O)[C@H]1C[C@H](c2c(-c3ccc(F)cc3)[nH]c3c(F)cc(F)cc32)C1 (mixture of isomers)', '6.00 to 6.60'),
  ('O=C(NCC1CC(F)(F)C1)[C@H]1C[C@@H](c2c(-c3ccc(F)cc3)[nH]c3c(F)cc(F)cc32)C1', '< 6.00'),
  ('O=C1CN(C(=O)[C@H]2C[C@H](c3c(-c4ccc(F)cc4)[nH]c4c(F)cc(F)cc43)C2)CCN1', '< 6.00'),
  ('O=C(N[C@@H]1CCC[C@H]1O)[C@H]1C[C@H](c2c(-c3ccc(F)cc3)[nH]c3c(F)cc(F)cc32)C1', '< 6.00');

====

Experimental System: APOL1 G1 Protein (Homo sapiens, UniProt O14791, I384M/S342G)
Sequence (O14791 28-398 S342G/I384M): as above
Protocol Description: Trypanosoma brucei brucei lysis assay using APOL1 recombinant protein (AlamarBlue viability)
Assay type: cell-based
Reported Conditions: Trypanosoma brucei brucei lysis, recombinant APOL1, AlamarBlue; read-out: Trypanosoma Assay (IC50)
Excerpt: Trypanosoma brucei brucei is a blood stream parasite to which human, gorillas and baboon are immune due to the presence of the APOL1 protein in their HDL particles. […] Briefly, the AlamarBlue active compound, the resazurin, a blue, water soluble, non-toxic and cell permeable molecule, which can be followed by absorbance, is reduced by various metabolic pathways into resorufin, a red compound which can be followed by either absorbance or fluorescence. […]
pIC50: −log10 of the molar value.
Consider the following molecules and their measured pIC50 readings.
Measurement Name: pIC50

INSERT INTO results (molecule, value_reported) VALUES
  ('COCC1(NC(=O)[C@H]2C[C@H](c3c(-c4ccc(F)cc4)[nH]c4c(F)cc(F)cc43)C2)CC1', '> 6.60'),
  ('C[C@@H](O)CNC(=O)[C@H]1C[C@H](c2c(-c3ccc(F)cc3)[nH]c3c(F)cc(F)cc32)C1', '6.00 to 6.60'),
  ('CC1(O)CN(C(=O)[C@H]2C[C@H](c3c(-c4ccc(F)cc4)[nH]c4c(F)cc(F)cc43)C2)C1', '6.00 to 6.60'),
  ('O=C([C@H]1C[C@H](c2c(-c3ccc(F)cc3)[nH]c3c(F)cc(F)cc32)C1)N1CCCC(O)C1 (stereo partly shown)', '6.00 to 6.60'),
  ('O=C1CCC(NC(=O)[C@H]2C[C@H](c3c(-c4ccc(F)cc4)[nH]c4c(F)cc(F)cc43)C2)C1 (stereo partly shown)', '< 6.00'),
  ('Cn1cncc1CNC(=O)[C@H]1C[C@H](c2c(-c3ccc(F)cc3)[nH]c3c(F)cc(F)cc32)C1', '6.00 to 6.60'),
  ('Cc1cc(NC(=O)[C@H]2C[C@H](c3c(-c4ccc(F)cc4)[nH]c4c(F)cc(F)cc43)C2)no1', '6.00 to 6.60');

====

Experimental System: APOL1 G1 Protein (Homo sapiens, UniProt O14791, I384M/S342G)
Protocol Description: Trypanosoma brucei brucei lysis assay using APOL1 recombinant protein (AlamarBlue viability)
Type: cell-based
Reported Conditions: Trypanosoma brucei brucei lysis, recombinant APOL1, AlamarBlue; read-out: Trypanosoma Assay (IC50)
Excerpt: Trypanosoma brucei brucei is a blood stream parasite to which human, gorillas and baboon are immune due to the presence of the APOL1 protein in their HDL particles. […] Briefly, the AlamarBlue active compound, the resazurin, a blue, water soluble, non-toxic and cell permeable molecule, which can be followed by absorbance, is reduced by various metabolic pathways into resorufin, a red compound which can be followed by either absorbance or fluorescence. […]
pIC50: −log10 of the molar value.
Property: pIC50; scope: individual compounds
Measurement Name: pIC50

INSERT INTO results (compound, measurement_name, value_reported) VALUES
  ('CC(C)C(CO)NC(=O)[C@H]1C[C@H](c2c(-c3ccc(F)cc3)[nH]c3c(F)cc(F)cc32)C1 (stereo partly shown)', 'pIC50', '6.00 to 6.60'),
  ('O=C(OC1CN(C(=O)[C@H]2C[C@H](c3c(-c4ccc(F)cc4)[nH]c4c(F)cc(F)cc43)C2)C1)C1CCOCC1', 'pIC50', '> 6.60'),
  ('NCCCNC(=O)[C@H]1C[C@H](c2c(-c3ccc(F)cc3)[nH]c3c(F)cc(F)cc32)C1', 'pIC50', '> 6.60'),
  ('O=C(N[C@H]1COC[C@@H]1O)[C@H]1C[C@H](c2c(-c3ccc(F)cc3)[nH]c3c(F)cc(F)cc32)C1', 'pIC50', '6.00 to 6.60');

====

Experimental System: APOL1 G1 Protein (Homo sapiens, UniProt O14791, I384M/S342G)
Protocol Description: Trypanosoma brucei brucei lysis assay using APOL1 recombinant protein (AlamarBlue viability)
Format: cell-based
Reported Conditions: Trypanosoma brucei brucei lysis, recombinant APOL1, AlamarBlue; read-out: Trypanosoma Assay (IC50)
Measurement Name: IC50

INSERT INTO results (compound, value_reported) VALUES
  ('COCc1cc(CNC(=O)[C@H]2C[C@H](c3c(-c4ccc(F)cc4)[nH]c4c(F)cc(F)cc43)C2)n[nH]1', '> 1000 nM'),
  ('C[C@@H](NC(=O)[C@H]1C[C@H](c2c(-c3ccc(F)cc3)[nH]c3c(F)cc(F)cc32)C1)C(=O)N(C)C', '> 1000 nM'),
  ('O=C(NCCn1cncn1)[C@H]1C[C@H](c2c(-c3ccc(F)cc3)[nH]c3c(F)cc(F)cc32)C1', '< 250 nM'),
  ('O=C1CC[C@H](NC(=O)[C@H]2C[C@H](c3c(-c4ccc(F)cc4)[nH]c4c(F)cc(F)cc43)C2)C1', '250 to 1000 nM'),
  ('CC(C)[C@@H](CO)NC(=O)[C@H]1C[C@H](c2c(-c3ccc(F)cc3)[nH]c3c(F)cc(F)cc32)C1', '250 to 1000 nM'),
  ('NC(=O)[C@@H](CO)NC(=O)[C@H]1C[C@H](c2c(-c3ccc(F)cc3)[nH]c3c(F)cc(F)cc32)C1', '< 250 nM'),
  ('O=C(NC1(CO)CCOC1)[C@H]1C[C@H](c2c(-c3ccc(F)cc3)[nH]c3c(F)cc(F)cc32)C1 (some centres unmarked)', '< 250 nM'),
  ('O=C([C@H]1C[C@H](c2c(-c3ccc(F)cc3)[nH]c3c(F)cc(F)cc32)C1)N1CC2(CC(O)C2)C1', '> 1000 nM'),
  ('O=C(NC[C@H]1CC[C@@H](CO)O1)[C@H]1C[C@H](c2c(-c3ccc(F)cc3)[nH]c3c(F)cc(F)cc32)C1', '> 1000 nM'),
  ('CC(C)(NC(=O)[C@H]1C[C@H](c2c(-c3ccc(F)cc3)[nH]c3c(F)cc(F)cc32)C1)C(=O)N1CCOCC1', '> 1000 nM'),
  ('O=C(NCC1(O)CCCCC1)[C@H]1C[C@H](c2c(-c3ccc(F)cc3)[nH]c3c(F)cc(F)cc32)C1', '> 1000 nM'),
  ('O=C([C@H]1C[C@H](c2c(-c3ccc(F)cc3)[nH]c3c(F)cc(F)cc32)C1)N1CCOCC1CCO (some centres unmarked)', '> 1000 nM'),
  ('O=C([C@H]1C[C@H](c2c(-c3ccc(F)cc3)[nH]c3c(F)cc(F)cc32)C1)N1CC(O)C(CO)C1 (some centres unmarked)', '250 to 1000 nM'),
  ('O=C([C@H]1C[C@H](c2c(-c3ccc(F)cc3)[nH]c3c(F)cc(F)cc32)C1)N1CC(CO)C1', '< 250 nM');
